Values compiled from PubChem BioAssay (NCI).

- ASSAY_NOTES: NCI Yeast Anticancer Drug Screen. Data for the cln2 rad14 strain (AID 165);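 further: 0% = growth equal to vehicle treated cultures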
- CONDITIONS: S. cerevisiae cln2 rad14 strain, at 50.0 µM, active compounds read high
Compounds without any hit were thinned out: in the full panel of roughly 79,000, 15% have a hit. The source made the active and inactive calls. No stated cut-off is given here; in the data, active means growth inhibition above about 70%; inactive means the rest.
growth inhibition for assorted compounds

// known answers, use as guide
> print(dat)
                                    compound  recorded.measurement
 1  O=S(=O)([O-])Sn1c(-c2ccccc2)c[n+]2ccccc12      14.2% (inactive)
 2              Cc1ccsc1/C=N/Nc1nncc2ccccc12      9.05% (inactive)
 3         CCOC(=O)c1sc(Nc2cc(Cl)ccc2Cl)nc1C        -2% (inactive)
 4                   CC1=C(C(=O)NN)CC/C1=N\N     -10.6% (inactive)
 5   CCOC1C=CCCC1 (configuration not stated)       9.4% (inactive)
 6  CCOC(=O)CCCCCCCCCCCCC1C=CCC1 (configuration not stated)     -28.6% (inactive)
 7  CC(C)CC(CN(C)C)C(=O)/C=C/c1ccccc1 (configuration not stated)     -6.95% (inactive)
 8              ClC(Cl)(Cl)c1ccc(C2OCCO2)cc1     -26.6% (inactive)
 9  OCC(O)C(O)C(CN=Cc1ccccc1O)N=Cc1ccccc1O (configuration not stated)     -26.1% (inactive)
10  N#Cc1ccc(CSC2=C(c3ccc(Cl)cc3)S/C(=C3\SC(SCc4ccc(C#N)cc4)=C(c4ccc(Cl)cc4)S3)S2)cc1       7.7% (inactive)

(Q) Need growth inhibition, item `Cc1ccc(S(=O)(=O)/C=C/c2ccccc2)cc1`
(A) -10.3% (inactive)

(Q) Need growth inhibition, item Cc1ccc([B-]23OCC[N+]2(CNC(=O)c2ccccc2O)CCO3)cc1 (configuration not stated)
(A) 3.6% (inactive)
